Values were extracted from patent US20070281992A1.

# Test system: Methicillin-Resistant Staphylococcus aureus Isolates
# assayNotes: MIC assay (NCCLS broth dilution), MRSA clinical isolates
# Format: cell-based
# assayConditions: Staphylococcus aureus, MRSA isolate 767, 22FEB06; read-out: Minimal Inhibitory Concentration
resultType: MIC (µg/mL)

Below are worked cases with known answers.
1) CO[C@@H]1[C@@H](OC(N)=O)[C@@H](O)[C@H](Oc2ccc3c(O)c(NC(=O)c4ccc(O)c(CC=C(C)C)c4)c(=O)oc3c2C)OC1(C)C :: 0.15
2) Cc1onc(-c2ccccc2)c1C(=O)N[C@@H]1C(=O)N2[C@@H]1SC(C)(C)[C@@H]2C(=O)O :: 16

P = CC(=O)NC[C@H]1CN(c2ccc(N3CCOCC3)c(F)c2)C(=O)O1
Q = CN(C)c1ccc(O)c2c1C[C@H]1C[C@H]3[C@H](N(C)C)C(O)=C(C(N)=O)C(=O)[C@@]3(O)C(O)=C1C2=O
Select the item with the higher value of MIC from the options P and Q listed. Response format: the label of the selected entry.
P
(P: 2 µg/mL, Q: 0.12 µg/mL)
